species on record: Canis familiaris; assay: Pulmonary selectivity measured as the ratio of salivation and bronchospasm; assay type: functional, Canis lupus familiaris, Bronchiole
Examples of molecules with documented Ratio follow.

>  <MOLECULE>
CCCN(C)C(C)CN1CCc2c(c(=O)oc3cc(C)ccc23)C1 (centres undefined)

>  <MEASURED_PROPERTY>
Ratio

>  <RESULT>
1.6

$$$$
>  <MOLECULE>
COc1ccc2c3c(c(=O)oc2c1)CN(CCN1CC2CCC1CC2)CC3

>  <MEASURED_PROPERTY>
Ratio

>  <RESULT>
1.6

$$$$
>  <MOLECULE>
CC(CN1CCc2c(c(=O)oc3ccccc23)C1)N1CCCCC1 (centres undefined)

>  <MEASURED_PROPERTY>
Ratio

>  <RESULT>
5.8

$$$$

## Input Requested field: Ratio. Item: CCN(C)C(C)CN1CCc2c(c(=O)oc3cc(OC)ccc23)C1 (centres undefined)
## Output 1.5

## Input Using the record for COc1cc2oc(=O)c3c(c2cc1OC)CCN(CC(C)N(C)C)C3 (centres undefined) , report its Ratio.
## Output 4.5

## Input // query Ratio value for entry CCN(C)C(C)CN1CCc2c(c(=O)oc3cc(C)ccc23)C1 (centres undefined)
## Output 2.2

## Input I would be grateful if you could share the reported Ratio for COc1cc2oc(=O)c3c(c2cc1OC)CCN(CC(C)N1CCCC1)C3 (centres undefined) .
## Output 1.4

## Input May I ask what Ratio has been recorded for CCOc1cc2oc(=O)c3c(c2cc1OCC)CCN(CC(C)N1CCCC1)C3 (centres undefined) ?
## Output 1.6

## Input Please look up its Ratio: CCOc1cc2oc(=O)c3c(c2cc1OCC)CCN(CCN1CC2CCC(CC2)C1)C3
## Output 0.79

----------
tested on: Cavia porcellus; assay: Methacholine challenge test was performed on guinea pigs by administration of compound at 25 mg/kg perorally; assay type: functional; conditions: route oral
MEASURED_PROPERTY: Collapse time (min)
Answer in min, number only, no unit symbol.

>  <COMPOUND>
COc1cc2oc(=O)c3c(c2cc1OC)CCN(CCN1CCCCC1)C3

>  <Collapse time (min)>
4.9

$$$$
>  <COMPOUND>
COc1ccc2c3c(c(=O)oc2c1)CN(CC(C)N(C)C)CC3 (stereo not drawn)

>  <Collapse time (min)>
10

$$$$
>  <COMPOUND>
COc1cc2oc(=O)c3c(c2cc1OC)CCN(CC(C)N1CCCCCC1)C3 (stereo not drawn)

>  <Collapse time (min)>
1.7

$$$$
>  <COMPOUND>
CCNC(C)CN1CCc2c(c(=O)oc3cc(OC)ccc23)C1 (stereo not drawn)

>  <Collapse time (min)>
7.5

$$$$
>  <COMPOUND>
CCN1CCCC1CN1CCc2c(c(=O)oc3cc(OC)c(OC)cc23)C1.Cl.Cl (stereo not drawn)

>  <Collapse time (min)>
2.8

$$$$
>  <COMPOUND>
CCOc1cc2oc(=O)c3c(c2cc1OCC)CCN(CCN1CC2CCC(CC2)C1)C3

>  <Collapse time (min)>
6.3

$$$$

## Input Please look up its Collapse time: CCCN(CC)C(C)CN1CCc2c(c(=O)oc3ccccc23)C1 (stereo not drawn)
## Output 6.4

## Input Give its Collapse time value. Item: CC(CN1CCc2c(c(=O)oc3ccccc23)C1)N1CCCC1 (stereo not drawn)
## Output 10

## Input Entry COc1ccc2c3c(c(=O)oc2c1)CN(CCN1CCOCC1)CC3 : reported Collapse time = ?
## Output 6.1

----------
organism: Canis familiaris; assay: Pulmonary selectivity measured as the ratio of salivation and bronchospasm; assay type: functional, Canis lupus familiaris, Bronchiole
MEASURED_PROPERTY: Ratio
Please give only the number in your answer, with no unit.

>  <COMPOUND>
CCN(CC)CCN1CCc2c(c(=O)oc3cc(OC)ccc23)C1

>  <Ratio>
0.4

$$$$
>  <COMPOUND>
CCNC(C)CN1CCc2c(c(=O)oc3ccccc23)C1 (stereo not given)

>  <Ratio>
5.9

$$$$
>  <COMPOUND>
COc1ccc2c3c(c(=O)oc2c1)CN(CCN1CCCC1)CC3

>  <Ratio>
3

$$$$

## Input Which value of Ratio has been reported for COc1ccc2c3c(c(=O)oc2c1)CN(CCN1CCCCCC1)CC3 in the records?
## Output 1.8

## Input Fill in the blank: the reported Ratio of CN1[C@@H]2CC[C@H]1C[C@@H](OC(=O)C(CO)c1ccccc1)C2 (stereo not given in full) [ATROPINE] is ____.
## Output 0.46

## Input Any idea what its Ratio is? The compound is CCCN(C)C(C)CN1CCc2c(c(=O)oc3cc(OC)ccc23)C1 (stereo not given)
## Output 1.2

## Input # query: Ratio of entry Cc1ccc2c3c(c(=O)oc2c1)CN(CC(C)N1CCCC1)CC3 (stereo not given)
## Output 2.3

## Input Given the compound CC(CN1CCc2c(c(=O)oc3ccccc23)C1)N(C)C (stereo not given) , what is its reported Ratio?
## Output 21.6

## Input # input compound: COc1ccc2c3c(c(=O)oc2c1)CN(CC(C)N(C)C)CC3 (stereo not given) ; wanted: its Ratio
## Output 1.1

## Input Fill in: Ratio of COc1ccc2c3c(c(=O)oc2c1)CN(CCN1CC2CCCC(C2)C1)CC3 is ___
## Output 0.15

----------
tested on: Cavia porcellus; experiment: Methacholine challenge test was performed on guinea pigs by administration of compound at 25 mg/kg perorally; assay type: functional; details: route oral
Below is a list of entries, each paired with its recorded Collapse time value.
Enter your answer as a number in min; do not include the unit.

In the examples that follow, each entry is paired with its recorded Collapse time.
>  <COMPOUND>
Cc1cc2oc(=O)c3c(c2cc1C)CCN(CC(C)N1CCCCC1)C3 (centres undefined)

>  <Collapse time (min)>
7.7

$$$$
>  <COMPOUND>
COc1ccc2c3c(c(=O)oc2c1)CN(CCN1CC2CCC(CC2)C1)CC3

>  <Collapse time (min)>
6

$$$$
>  <COMPOUND>
CCCN(C)C(C)CN1CCc2c(c(=O)oc3cc(C)ccc23)C1 (centres undefined)

>  <Collapse time (min)>
5.4

$$$$

## Input Recorded Collapse time for COc1cc2oc(=O)c3c(c2cc1OC)CCN(CCN1CC2CCC1CC2)C3 , please?
## Output 7.6

## Input Can you share its Collapse time? I mean this compound: COc1ccc2c3c(c(=O)oc2c1)CN(CCN1CC2CCC1CC2)CC3
## Output 10

## Input Give its Collapse time value. Item: CCCN(CCC)CCN1CCc2c(c(=O)oc3cc(OC)ccc23)C1
## Output 7

## Input Report Collapse time for CCc1ccc2c3c(c(=O)oc2c1)CN(CCN1CC2CCC(CC2)C1)CC3 please.
## Output 6.8

## Input Quick one: Collapse time of Cc1ccc2c3c(c(=O)oc2c1)CN(CC(C)N1CCCC1)CC3 (centres undefined) ?
## Output 8.7

## Input Reported Collapse time for COc1cc2oc(=O)c3c(c2cc1OC)CCN(CCN1CC2CCCC(C2)C1)C3 : what is it?
## Output 6.6

## Input So what does the record say about Collapse time for COc1ccc2c3c(c(=O)oc2c1)CN(CCN(C)C)CC3 ?
## Output 1.9

## Input Consider the compound CCN(C)C(C)CN1CCc2c(c(=O)oc3cc(OC)c(OC)cc23)C1 (centres undefined) and give its measured Collapse time.
## Output 6

## Input Which Collapse time reading was recorded for the compound COc1ccc2c3c(c(=O)oc2c1)CN(CCN1CCCCCC1)CC3 ?
## Output 8

## Input # query: Collapse time of entry COc1cc2oc(=O)c3c(c2cc1OC)CCN(CCN1CCCCCC1)C3
## Output 4

## Input So what does the record say about Collapse time for Cc1cc2oc(=O)c3c(c2cc1C)CCN(CC(C)N1CCCC1)C3 (centres undefined) ?
## Output 8.2

## Input Which Collapse time value is on record for COc1cc2oc(=O)c3c(c2cc1OC)CCN(CC(C)N1CCCC1)C3 (centres undefined) ?
## Output 10

## Input Fill in: Collapse time of CCN(CC)C(C)CN1CCc2c(c(=O)oc3ccccc23)C1 (centres undefined) is ___
## Output 10

## Input Dear colleague, I am looking for the recorded Collapse time of the following compound: CCN(C)C(C)CN1CCc2c(c(=O)oc3cc(OC)ccc23)C1 (centres undefined)
## Output 9.1

## Input Could you share which Collapse time value was measured for CC(CN1CCc2c(c(=O)oc3ccccc23)C1)N1CCCCC1 (centres undefined) ?
## Output 10

## Input # get_value(readout='Collapse time', item= COc1ccc2c3c(c(=O)oc2c1)CN(CCN1CCCC1)CC3 )
## Output 9.1

## Input Bench note: what Collapse time did Cc1cc2oc(=O)c3c(c2cc1C)CCN(CCN1CC2CCC(CC2)C1)C3 show?
## Output 5.1
